These data points were gathered from patent US20250027068.

- TARGET_OR_TEST_SYSTEM: pooled human IgG (human IgG1, 2, 3 and 4)
MEASURED_QUANTITY: Enzyme Activity Endpoint Assay: Fc
Field note: include the unit after the figure.

PRT-416 (protein) MTITSVWTKGVTPPTPEDFRYNNEDVLHAPYVANQGWYDITKTFDGKDNLLCGAATAGNMLHWWFDQNKEEIERYLKKHPEKQKIIFNNQELFDVKAAIDTKDSQTNSKLFNYFRDKAFPNLSARQLGVMPDLVLDMFINGYYLNLPKTQSTDVNRPYQDKDKRGGIFDAVFTRGDQTTLLTARHDLKNKGLNEISDLIKQELTEGKALALSHTYANVRINHVINLWGADFDAEGNLIAIYVTDSDANASIGMKKYFVGVNANGKVAISAKKIEGDNIGAQVLGLFTLSTGQDIWQKLS    258 ng/µL
PRT-439 (protein) MSQTEDSESLQRLRDIEDFQAEKKKQNVVYTKWLDGVDVKDHDFRKIVDGNIAYYATPLLNGRGFYDINKDFNRDSDKCAAAVAANMFHYWLDRNRDNVDRFLRQNPEKHGIIELPDGQLKLSDFLNTYESDDGYRDKSKLFDFISNNFNGPVWTDKLLDNYINGYAYNYKYGRLIEDPTKNTSKINFFKEVFNEKILTNNHSIRNQNEFSVLLSEALYTGKAIGLSYGPAGLRHSLGHIISVWGADLDADGNVVAIYVTDSDDKKLTIGDERVGLKRYKISTDDEGRLRLTAYEETHNTGGQIRGLWTLDTGKQAWADYFDKTEQTGTDQAEQ    191 ng/µL
PRT-392 (protein) MVTSVWTKGVTPPTNFTYGEDVLHAPYVANQGWYDITKTFNGKDDLLCGAATAGNMLHWWFDQNKEQIENYLKKHPEKQKINFNGEQMFDVKEAIDTKDSQLDSKLFEYFKEKAFPYLSTKHLGVFPDHVIDMFINGYRLSLTNHGPTPVKRGSKDPRGGIFDAVFTRGVQSKLLTNRHDFKEKTLKEISDLIKQELTEGKALGISHTYANVRINHVINLWGADFDAEGNLEAIYVTDSDSNASIGMKKYFVGVNSNGKVAISAKEIEEDNIGAQVLGLFTLSTGQDIWNQTN    354 ng/µL

[in] Which Enzyme Activity Endpoint Assay: Fc is listed for PRT-375 (protein) MSQTEDSESLQRLRDIEDFQAEKKKQNVVYTKWLDGVDVKDHDFRKIVDGNEAYYATPLLNGRGFYDINKDFNRDNDKCAAAVAANMFHYWLDRNRDNVDRFLRQNPEKHGIIELPDGQLKLSDFLNTYESDDGYRDKSKLFDFISENFNGPVWTDKLLDNYINGYAYNYKYGRLIEDSTKNTSKINFFKEVFNEKILTNNHSIRNQNELSVLLSEALYTGKAIGLSYGPAGTRHSLGHIISVWGADLDADGNVVAIYVTDSDDKKLTIGDERVGLKRYKISTDDEGRLRLTAYEETHNTGGQIRGLWTLDTGKQAWADYFDKTEQTGTDQAEQ ?
[out] 115 ng/µL

[in] Given the entry PRT-477 (protein) MVTSVWTKGVTPPTNFTYGEDVLHAPYVANQGWYDITKTFNGKDDLLCGAATAGNMLHWWFDQNKEQIENYLKKHPEKQKINFNGEQMFDVKEAIDTKDSQLDSKLFEYFKEKAFPYLSTKHLGVFPDHVIDMFINGYRLSLTNHGPTPVKRGSKDPRGGIFDAVFTRGDQSKLLTNRHDLKNKTLKEISDLIKQELTEGKALGISHTYANVRINHVINLWGADFDAEGNLEAIYVTDSDSNASIGMKKYFVGVNSNGKVAISAKEIEEDNIGAQVLGLFTLSTGQDIWNQTNLEHHHHHH , report its measured Enzyme Activity Endpoint Assay: Fc.
[out] 277 ng/µL

[in] Consider the protein shown here: PRT-576 (protein) MANQEIRYSKATPSTITSVWTKGVTPPENFIYNEDVLHAPYLANQGWYDITKTFNGKDDLLCGAATAGNMLHWWFDQNKEQIERYLKKHPEKQKINFNGEQMFDVKEAIDTKDSQTNSKLFEYFKDKAFPYLSTKHLGVFPDHVIDMFINGYRLSLTNHGPTPVKEQTKDPRGGIFDAVFTRGDQSKLLTSRHDFKEKTLNEISDLIKQELTEGKALGLSHTYANVRINHVINLWGADFNAEGNLEAIYVTDSDSNASIGMKKYYVGVNSAGKVAISAKEIEGDNIGAQVLGLFTLSTGQDIWQQTNLEHHHHHH What is its recorded Enzyme Activity Endpoint Assay: Fc?
[out] 365 ng/µL

[in] Please look up its Enzyme Activity Endpoint Assay: Fc: PRT-547 (protein) MANQEIRYSEETPKTITSVWTKGVTPPTDFIQNEDVLHAPYIANQGWYDITKTFNGKDDLLCGAATAGNMLHWWFDQNKEEIENYLKKHPEKQKINFNGEQMFDVKEAIDTKDSQTDSALFEYFKDKAFPYLSTKHLGVFPDHVIDMFINGYRLSLTNHGPTPVKRGTKDPRGGIFDAVFTRGDQSKLLTARHDFKEKTLNEISDLIKQELTEGKALGLSHTYANVRINHVINLWGADFNSEGNLEAIYVTDSDSNASIGMKKYYVGVNAAGKVAISAKEIEGDNIGAQVLGLFTLSTGQDIWEQTNLEHHHHHH
[out] 359 ng/µL

[in] Return reported Enzyme Activity Endpoint Assay: Fc; argument: PRT-590 (protein) MANQEIRYSEETPSTVTSVWTKGVTPPTDFIQNEDVLHAPYIANQGWYDITKTFNGKDDLLCGAATAGNMLHWWFDQNKEQIENYLKKHPEKQKINFNGEQMFDVKEAIDTKDSQTDSALFEYFKDKAFPYLSTKHLGVFPDHVIDMFINGYRLSLTNHGPTPVKRGTKDPRGGIFDAVFTRGDQSKLLTSRHDFKEKTLNEISDLIKQELTEGKALGLSHTYANVRINHVINLWGADFNAEGNLEAIYVTDSDSNASIGMKKYYVGVNSAGKVAISAKEIEGDNIGAQVLGLFTLSTGQDIWNQTNLEHHHHHH
[out] 217 ng/µL
